Answer each item with its documented T/C.
test system: P388 leukemia ip, CD2F1 mice, survival T/C; test: NCI In Vivo Anticancer Drug Screen. Data for tumor model P388 Leukemia (intraperitoneal) in CD2F1 (CDF1) mice; conditions: endpoint: median survival time; dose: 200.0 mg/kg/injection; schedule: Q01DX005 (ip); vehicle: saline; higher = longer survival
Inconclusive results and toxic doses are left out.

{"columns": ["compound", "assay.endpoint", "reported.value"],
 "data": [
  ["C[C@@H]1[C@H](c2ccccc2)OCN1C", "T/C", "109 % of control"],
  ["CC(C)NC(=O)C(C)O (stereo not drawn)", "T/C", "101 % of control"],
  ["Cc1nc2[nH]ncc2c(=O)n1N", "T/C", "101 % of control"]
]}

Batch: T/C for all items listed.
1. O=C1CC(C(=O)O)C(C(=O)O)O1 (stereo not drawn)
2. O=S(O)CCCCSSCC(O)CO (stereo not drawn)
3. CN(C)NP(=O)(NN(C)C)Oc1ccccc1
4. OCC12CC=CCC1C1CC=CCC1O2 (stereo not drawn)
5. CC(C)(C)CC(C)(C)c1ccc(O)c(O)c1
6. O=c1[nH]c(=O)n(C2OC(CO)C(O)C2O)cc1Br (stereo not drawn)
7. O=C1CN(C2OC(CO)C(O)C2O)C(=O)NC1=O (stereo not drawn)

Solution:
1. 93 % of control
2. 111 % of control
3. 103 % of control
4. 103 % of control
5. 110 % of control
6. 102 % of control
7. 116 % of control

Batch: T/C for all items listed.
1. CCCC(O)CCC(O)=C1C(=O)CCC1=O (stereo not drawn)
2. O=c1oc2ccccc2c(O)c1C(c1ccc2c(c1)OCO2)N1CCOCC1 (stereo not drawn)
3. CNC(=O)OCC1(OC(=O)NC)OC(COC(=O)NC)(OC(=O)NC)C(OC(=O)NC)C1OC(=O)NC (stereo not drawn)
4. CC(C)C(N)C(=O)NN (stereo not drawn)

Solution:
1. 107 % of control
2. 103 % of control
3. 101 % of control
4. 110 % of control
